- Test system: M19-MEL
- protocol.summary: NCI tumour cell line growth inhibition, 48 h
The source made the active and inactive calls. Cut-off read from the data, not from the text of the source: active = GI50 up to about 1.1 µM and inactive = higher.
Response enum: true (1) (active), false (0) (inactive)

Below, 2 molecules whose answers are already recorded.
Task: # outcome recorded in this test, key = "O=C1C=C(NCCc2ccccc2)c2ccccc2C1=O"
Output: true (1)

Task: # outcome recorded in this test, key = CC(=O)C(O)N1C(=O)C=CC1=O (stereo not drawn)
Output: false (0)

Could you now look at the following molecule, please?
Task: # outcome recorded in this test, key = CCCCC(C(=O)CCC(=O)Nc1ccc(Cl)c(Cl)c1)C(=O)C(C)C (stereo not drawn)
Output: false (0)

----------
- System: RPMI-8226
- protocol.summary: NCI tumour cell line growth inhibition, 48 h
Activity calls are given as the source filed them. Cut-off read from the data, not from the text of the source: active = GI50 up to about 1.1 µM and inactive = higher.
Measured GI50, listed per entry for reference.

Examples from the recorded data:
Task: // returns reported GI50 for input "CC[C@@H]1C[C@H]2CC3c4[nH]c5ccc(O)cc5c4CCN(C2)C31"
Output: > 100 µM (inactive)

Task: // returns reported GI50 for input "NNC(=O)c1nnn(CCc2ccccc2)c1C(=O)NN"
Output: > 100 µM (inactive)

Task: // returns reported GI50 for input OC1(c2ccc3ccccc3c2)c2c(c3ccccc3c3ccccc23)C2=NCCN21 (stereo not drawn)
Output: 2.52 µM (inactive)

Task: // returns reported GI50 for input "CCOC(=O)/C(C#N)=C/c1[nH]c(C(=O)OCc2ccccc2)c(C)c1C"
Output: > 100 µM (inactive)

Task: // returns reported GI50 for input "COc1c(C(=O)/C(=N/Nc2ccc(C(=O)O)cc2)C(C)=O)c(O)cc2occc12"
Output: > 100 µM (inactive)

Task: // returns reported GI50 for input O=C(c1ccncc1)C1C(=O)c2ccccc2C1C1(O)c2ccccc2CC1C(O)c1ccncc1 (stereo not drawn)
Output: 19 µM (inactive)

Others:
Task: // returns reported GI50 for input O=C(NCCc1ccccn1)c1ccc2cc(C(=O)N3CC(CCl)c4ccc([N+](=O)[O-])cc43)[nH]c2c1 (stereo not drawn)
Output: > 100 µM (inactive)

Task: // returns reported GI50 for input "c1sc(NC2=NCCO2)c2c1CCCC2"
Output: > 100 µM (inactive)

Task: // returns reported GI50 for input "NCCNCC1CCNCC1"
Output: > 100 µM (inactive)

----------
- System: RXF 393
- protocol.summary: NCI tumour cell line growth inhibition, 48 h
Activity calls are given as the source filed them. Cut-off read from the data, not from the text of the source: active = GI50 up to about 1.1 µM and inactive = higher.
Measured GI50, listed per entry for reference.

Task: // returns reported GI50 for input CN1C(=O)C(CCO)(C(C)(C)C)c2ccccc21 (stereo unspecified)
Output: > 100 µM (inactive)

Task: // returns reported GI50 for input "NCCC1(N)CCNCC1"
Output: > 100 µM (inactive)

Task: // returns reported GI50 for input COc1ccc(N2C(=O)C(C)SC2c2cc3cc(Br)ccc3nc2Cl)cc1 (stereo unspecified)
Output: 28.8 µM (inactive)

Task: // returns reported GI50 for input C=C1CC2CC(O)CC(C1)C2 (stereo unspecified)
Output: > 100 µM (inactive)

Task: // returns reported GI50 for input "Clc1cc(N/N=C(/c2ccccc2)c2ncccn2)ncn1"
Output: 19.8 µM (inactive)

Others:
Task: // returns reported GI50 for input "COc1ccc(OC)c(C(Cc2ccnc3ccccc23)Cc2ccnc3ccccc23)c1"
Output: > 10 µM (inactive)

Task: // returns reported GI50 for input "N#Cc1[nH]c(=O)n(-c2ccc(Cl)cc2)c1N"
Output: > 10 µM (inactive)
